test_name: Endothelial cell specificity of compound was determined as cytotoxicity on human tumor cell line L132 to that of endothelial cell
Assay type: functional
What ECS ratio was measured for each of the following?
No unit in the answer, only the number.

Which ECS ratio value is on record for CC(C)[C@@H]1CC[C@]2(C(=O)O)CC[C@]3(C)C(CCC4[C@@]5(C)CC/C(=N\Nc6ccc(F)cc6)C(C)(C)C5CC[C@]43C)C12 (stereo partly specified) ?
11.1

Cool, now CC(C)[C@@H]1CC[C@]2(C(=O)O)CC[C@]3(C)C(CCC4[C@@]5(C)CC(Br)[C@H](O)C(C)(C)C5CC[C@]43C)C12 (stereo partly specified)
3.1

Cool, now "C=C(C)[C@@H]1CC[C@]2(C(=O)O)CC[C@]3(C)[C@H](CC[C@@H]4[C@@]5(C)CCC(=O)C(C)(C)[C@@H]5CC[C@]43C)[C@@H]12"
3.2

Cool, now "C=C(C)[C@@H]1CC[C@]2(C(=O)O)CC[C@]3(C)[C@H](CC[C@@H]4[C@@]5(C)CC[C@H](O)C(C)(C)[C@@H]5CC[C@]43C)[C@@H]12"
1

Cool, now CC(C)[C@@H]1CC[C@]2(C(=O)O)CC[C@]3(C)C(CCC4[C@@]5(C)CC/C(=N\NC(=O)c6ccccc6)C(C)(C)C5CC[C@]43C)C12 (stereo partly specified)
1

Cool, now CC(C)[C@@H]1CC[C@]2(C(=O)O)CC[C@]3(C)C(CCC4[C@@]5(C)CC/C(=N\Nc6c(Cl)cc(Cl)cc6Cl)C(C)(C)C5CC[C@]43C)C12 (stereo partly specified)
11.4

###

What ECS ratio was measured for each of the following?
test_name: Endothelial cell specificity of compound was determined as cytotoxicity on human tumor cell line DU145 to that of endothelial cell
Format: functional
No unit in the answer, only the number.

Which ECS ratio value is on record for CC(C)[C@@H]1CC[C@]2(C(=O)O)CC[C@]3(C)C(CCC4[C@@]5(C)CC/C(=N\NC(=O)c6ccccc6)C(C)(C)C5CC[C@]43C)C12 (stereo partly specified) ?
7.7

Cool, now "C=C(C)[C@@H]1CC[C@]2(C(=O)O)CC[C@]3(C)[C@H](CC[C@@H]4[C@@]5(C)CC[C@H](O)C(C)(C)[C@@H]5CC[C@]43C)[C@@H]12"
2.2

Cool, now CC(C)[C@@H]1CC[C@]2(C(=O)O)CC[C@]3(C)C(CCC4[C@@]5(C)CC/C(=N\Nc6ccc(F)cc6)C(C)(C)C5CC[C@]43C)C12 (stereo partly specified)
3.7

Cool, now CC(C)[C@@H]1CC[C@]2(C(=O)O)CC[C@]3(C)C(CCC4[C@@]5(C)CC/C(=N\Nc6c(Cl)cc(Cl)cc6Cl)C(C)(C)C5CC[C@]43C)C12 (stereo partly specified)
6.6

Cool, now CC(C)[C@@H]1CC[C@]2(C(=O)O)CC[C@]3(C)C(CCC4[C@@]5(C)CC(Br)[C@H](O)C(C)(C)C5CC[C@]43C)C12 (stereo partly specified)
7

Cool, now "C=C(C)[C@@H]1CC[C@]2(C(=O)O)CC[C@]3(C)[C@H](CC[C@@H]4[C@@]5(C)CCC(=O)C(C)(C)[C@@H]5CC[C@]43C)[C@@H]12"
14.2

###

test_name: Endothelial cell specificity of compound was determined as cytotoxicity on human tumor cell line PA-1 to that of endothelial cell
Format: functional
Field: label. Allowed values: condition met (ECS ratio < 3) or condition not met (ECS ratio >= 3).

Strictly below 3: is that where ECS ratio of CC(C)[C@@H]1CC[C@]2(C(=O)O)CC[C@]3(C)C(CCC4[C@@]5(C)CC/C(=N\Nc6c(Cl)cc(Cl)cc6Cl)C(C)(C)C5CC[C@]43C)C12 (stereo partly specified) sits?
condition not met

Cool, now C=C(C)[C@@H]1CC[C@]2(C(=O)O)CC[C@]3(C)[C@H](CC[C@@H]4[C@@]5(C)CCC(=O)C(C)(C)[C@@H]5CC[C@]43C)[C@@H]12 [BETUNOLIC ACID]
condition not met

Cool, now C=C(C)[C@@H]1CC[C@]2(C(=O)O)CC[C@]3(C)[C@H](CC[C@@H]4[C@@]5(C)CC[C@H](O)C(C)(C)[C@@H]5CC[C@]43C)[C@@H]12 [BETULINIC ACID]
condition not met

Cool, now CC(C)[C@@H]1CC[C@]2(C(=O)O)CC[C@]3(C)C(CCC4[C@@]5(C)CC/C(=N\NC(=O)c6ccccc6)C(C)(C)C5CC[C@]43C)C12 (stereo partly specified)
condition not met

Cool, now CC(C)[C@@H]1CC[C@]2(C(=O)O)CC[C@]3(C)C(CCC4[C@@]5(C)CC(Br)[C@H](O)C(C)(C)C5CC[C@]43C)C12 (stereo partly specified)
condition not met

Cool, now CC(C)[C@@H]1CC[C@]2(C(=O)O)CC[C@]3(C)C(CCC4[C@@]5(C)CC/C(=N\Nc6ccc(F)cc6)C(C)(C)C5CC[C@]43C)C12 (stereo partly specified)
condition met
